melting point values by entry

| COMPOUND SMILES | melting point |
| --- | --- |
| Cc1ccc(C(C)C)c(OCCCCCCc2nc(N)nc(N3CCN(C)CC3)n2)c1 | 59 °C (dec.) |
| CC(C)c1cccc(C(C)C)c1OCc1nc(N)nc(N2CCN(C)CC2)n1 | 160 to 163 °C |
| CC(C)c1ccccc1OCc1nc(N)nc(N2CCN(C)CC2)n1 | 140 to 142 °C |
| CC(C)c1ccccc1OCCCCc1nc(N)nc(N2CCN(C)CC2)n1 | 59 °C |
| Cc1cccc(OCCCc2nc(N)nc(N3CCN(C)CC3)n2)c1 | 114 to 117 °C |

----------
Molecular target: human 5-HT7R (Homo sapiens, UniProt P34969)
Construct: expressed in transfected cells; host or cells: HEK293
Sequence (P34969 whole entry): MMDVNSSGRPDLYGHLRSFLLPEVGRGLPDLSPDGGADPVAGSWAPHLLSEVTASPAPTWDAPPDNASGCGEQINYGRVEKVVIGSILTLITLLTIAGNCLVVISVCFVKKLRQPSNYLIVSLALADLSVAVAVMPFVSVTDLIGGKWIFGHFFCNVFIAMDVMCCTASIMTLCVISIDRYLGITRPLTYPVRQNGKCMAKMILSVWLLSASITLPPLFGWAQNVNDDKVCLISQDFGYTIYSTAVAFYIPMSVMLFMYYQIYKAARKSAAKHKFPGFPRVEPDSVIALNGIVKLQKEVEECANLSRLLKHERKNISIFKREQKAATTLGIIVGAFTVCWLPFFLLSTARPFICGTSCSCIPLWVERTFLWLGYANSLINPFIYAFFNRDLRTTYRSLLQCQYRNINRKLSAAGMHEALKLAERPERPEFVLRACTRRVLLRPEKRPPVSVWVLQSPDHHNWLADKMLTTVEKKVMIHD
Experiment: Radioligand binding assay, 5-HT7R ([3H]-5-CT)
Settings: compound 3 and its salts
Procedure: Affinity for serotonin 5-HT2A, 5-HT7 and dopamine D2 receptors (D2R) as protein off-targets was evaluated in the radioligand binding assays. In CHO-K1 cells, it was stably expressed human 5-HT2AR, whereas human 5-HT7R and D2R were stably expressed in HEK293 cells. […] A particularly weak affinity towards this receptor was shown through compounds of series 1 (compounds 1–7) and series 2 (compounds 8–13). […]. […]
pKi: −log10 of the molar value.

| COMPOUND SMILES | pKi |
| --- | --- |
| CN1CCN(c2nc(N)nc(COc3ccccc3C(C)(C)C)n2)CC1 | 5.20 |

----------
Ki values by entry
biological target: human D2R (Homo sapiens, UniProt P14416)
Sequence (P14416 whole entry): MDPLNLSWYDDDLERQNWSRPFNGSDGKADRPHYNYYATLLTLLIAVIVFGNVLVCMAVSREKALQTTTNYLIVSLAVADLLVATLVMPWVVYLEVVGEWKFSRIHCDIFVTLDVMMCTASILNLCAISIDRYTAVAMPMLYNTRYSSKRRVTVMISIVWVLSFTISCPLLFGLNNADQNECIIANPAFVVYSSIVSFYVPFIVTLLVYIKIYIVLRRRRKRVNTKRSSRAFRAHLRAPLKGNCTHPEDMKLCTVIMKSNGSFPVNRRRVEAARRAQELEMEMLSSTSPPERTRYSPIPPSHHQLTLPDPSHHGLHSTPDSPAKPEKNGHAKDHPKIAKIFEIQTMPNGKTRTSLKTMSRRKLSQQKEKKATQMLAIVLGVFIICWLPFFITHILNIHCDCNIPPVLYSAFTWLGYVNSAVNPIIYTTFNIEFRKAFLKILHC

| COMPOUND SMILES | SCALE UNIT | Ki |
| --- | --- | --- |
| CC(C)c1ccc(OCCCc2nc(N)nc(N3CCN(C)CC3)n2)cc1 | nM | 704 |
| CC(C)c1ccccc1OCCCc1nc(N)nc(N2CCN(C)CC2)n1.Cl | nM | 2430 |
| Cc1ccc(C(C)C)c(OCCCc2nc(N)nc(N3CCN(C)CC3)n2)c1 | nM | 1590 |
| CC(C)c1ccccc1OCCCCCc1nc(N)nc(N2CCN(C)CC2)n1 | nM | 196 |
| Cc1cccc(OCCCc2nc(N)nc(N3CCN(C)CC3)n2)c1 | nM | 2600 |
| CN1CCN(c2nc(N)nc(COc3ccc(C(C)(C)C)cc3)n2)CC1 | nM | 3130 |
| CC(C)c1cccc(OCc2nc(N)nc(N3CCN(C)CC3)n2)c1 | nM | 1790 |
| Cc1cccc(OCCCCc2nc(N)nc(N3CCN(C)CC3)n2)c1 | nM | 612 |
| Cc1ccc(C(C)C)c(OCCCCCc2nc(N)nc(N3CCN(C)CC3)n2)c1 | nM | 837 |
| Cc1cccc(OCCCCCc2nc(N)nc(N3CCN(C)CC3)n2)c1 | nM | 481 |
| Cc1ccc(C(C)C)c(OCCCCCCc2nc(N)nc(N3CCN(C)CC3)n2)c1 | nM | 149 |
| CN1CCN(c2nc(N)nc(COc3ccc(C(C)(C)C)cc3C(C)(C)C)n2)CC1 | nM | 2740 |
| CN1CCN(c2nc(N)nc(COc3ccccc3C(C)(C)C)n2)CC1 | nM | 1620 |
| Cc1ccccc1OCCCc1nc(N)nc(N2CCN(C)CC2)n1 | nM | 1760 |
| Cc1ccc(OCc2nc(N)nc(N3CCN(C)CC3)n2)c(C(C)(C)C)c1 | nM | 2300 |
| CC(C)c1ccccc1OCCCCc1nc(N)nc(N2CCN(C)CC2)n1 | nM | 5690 |

----------
For reference, Ki measured on human 5-HT2AR (Homo sapiens):
ENDPOINT NAME: Ki

| MOLECULE | OBSERVED VALUE |
| --- | --- |
| CN1CCN(c2nc(N)nc(COc3ccc(C(C)(C)C)cc3C(C)(C)C)n2)CC1 [Compound 13] | 0.76 µM |
| Cc1cccc(OCCCCc2nc(N)nc(N3CCN(C)CC3)n2)c1 [Compound 21] | 0.952 µM |
| Cc1ccc(OCc2nc(N)nc(N3CCN(C)CC3)n2)c(C(C)(C)C)c1 [Compound 9] | 1.93 µM |
| CC(C)c1cccc(C(C)C)c1OCc1nc(N)nc(N2CCN(C)CC2)n1 [Compound 11] | 7.8 µM |
| Cc1ccc(C(C)C)c(OCCCCCCc2nc(N)nc(N3CCN(C)CC3)n2)c1 [Compound 25] | 0.364 µM |
| Cc1ccccc1OCCCc1nc(N)nc(N2CCN(C)CC2)n1 [Compound 18] | 1.44 µM |
| CN1CCN(c2nc(N)nc(COc3ccc(C(C)(C)C)cc3)n2)CC1 [Compound 7] | 0.549 µM |
| CC(C)c1cccc(OCc2nc(N)nc(N3CCN(C)CC3)n2)c1 [Compound 4] | 2.61 µM |
| Cc1ccc(C(C)(C)C)c(OCc2nc(N)nc(N3CCN(C)CC3)n2)c1.Cl [Compound 8] | 1.24 µM |
| CC(C)c1ccc(OCc2nc(N)nc(N3CCN(C)CC3)n2)cc1 [Compound 6] | 0.248 µM |
| Cc1ccc(C(C)C)c(OCCCCCc2nc(N)nc(N3CCN(C)CC3)n2)c1 [Compound 22] | 0.709 µM |
| CC(C)c1ccc(OCCCc2nc(N)nc(N3CCN(C)CC3)n2)cc1 [Compound 16] | 1.17 µM |
| CN1CCN(c2nc(N)nc(COc3cccc(C(C)(C)C)c3)n2)CC1 [Compound 5] | 3.11 µM |
| CC(C)c1ccccc1OCCCCc1nc(N)nc(N2CCN(C)CC2)n1 [Compound 20] | 0.677 µM |
| Cc1cccc(OCCCc2nc(N)nc(N3CCN(C)CC3)n2)c1 [Compound 17] | 3.85 µM |
| Cc1ccc(C(C)C)c(OCCCc2nc(N)nc(N3CCN(C)CC3)n2)c1 [Compound 14] | 1.69 µM |
| Cc1cccc(OCCCCCc2nc(N)nc(N3CCN(C)CC3)n2)c1 [Compound 24] | 0.854 µM |
| CN1CCN(c2nc(N)nc(COc3ccccc3C(C)(C)C)n2)CC1 [Compound 3] | 2.18 µM |
| CC(C)c1ccccc1OCCCCCc1nc(N)nc(N2CCN(C)CC2)n1 [Compound 23] | 0.597 µM |
| CC(C)c1ccccc1OCc1nc(N)nc(N2CCN(C)CC2)n1 [Compound 2] | 1.27 µM |

----------
Where a name gives a salt, the structure may show the parent alone.

| COMPOUND | melting point |
| --- | --- |
| CC(C)c1cccc(OCc2nc(N)nc(N3CCN(C)CC3)n2)c1 [Compound 4] | 103 to 105 °C |
| CN1CCN(c2nc(N)nc(COc3cccc(C(C)(C)C)c3)n2)CC1 [Compound 5] | 101.2 to 104.1 °C |
| CN1CCN(c2nc(N)nc(COc3ccc(C(C)(C)C)cc3C(C)(C)C)n2)CC1 (as salt: hydrochloride) [Compound 13] | 284 to 287 °C |
| Cc1ccc(C(C)C)c(OCCCCc2nc(N)nc(N3CCN(C)CC3)n2)c1.Cl [Compound 19] | 239 °C |
| CC(C)c1ccc(OCc2nc(N)nc(N3CCN(C)CC3)n2)cc1 [Compound 6] | 133 to 135 °C |
| Cc1cccc(OCCCCCc2nc(N)nc(N3CCN(C)CC3)n2)c1 [Compound 24] | 83 to 85 °C |
| Cc1ccc(C(C)C)c(OCCCc2nc(N)nc(N3CCN(C)CC3)n2)c1 [Compound 14] | 77 °C |
| Cc1ccc(OCc2nc(N)nc(N3CCN(C)CC3)n2)c(C(C)(C)C)c1 [Compound 9] | 146.5 °C (dec.) |
| CC(C)c1ccccc1OCCCc1nc(N)nc(N2CCN(C)CC2)n1.Cl [Compound 15] | 235 °C |
| CN1CCN(c2nc(N)nc(COc3ccccc3C(C)(C)C)n2)CC1 [Compound 3] | 107 to 109 °C |
| CC(C)c1ccc(OCCCc2nc(N)nc(N3CCN(C)CC3)n2)cc1 [Compound 16] | 92 °C |
| Cc1cccc(C(C)(C)C)c1OCc1nc(N)nc(N2CCN(C)CC2)n1 [Compound 10] | 177 to 179 °C (dec.) |
| Cc1cccc(OCCCCc2nc(N)nc(N3CCN(C)CC3)n2)c1 [Compound 21] | 99 to 101 °C |
| CN1CCN(c2nc(N)nc(COc3ccc(C(C)(C)C)cc3)n2)CC1 [Compound 7] | 104.4 °C (dec.) |
| Cc1ccc(C(C)C)c(OCCCCCc2nc(N)nc(N3CCN(C)CC3)n2)c1 [Compound 22] | 75 °C (dec.) |
| Cc1ccc(C(C)(C)C)c(OCc2nc(N)nc(N3CCN(C)CC3)n2)c1.Cl [Compound 8] | 259 °C (dec.) |
| CC(C)c1ccccc1OCCCCCc1nc(N)nc(N2CCN(C)CC2)n1 [Compound 23] | 63 to 65 °C |
| Cc1ccccc1OCCCc1nc(N)nc(N2CCN(C)CC2)n1 [Compound 18] | 83 °C |
